As shown below, each of these molecules has a reported pIC50 value.
# system_under_test: D816V Kit (Homo sapiens, UniProt P10721, D816V)
# Sequence (P10721 26-976 D816V): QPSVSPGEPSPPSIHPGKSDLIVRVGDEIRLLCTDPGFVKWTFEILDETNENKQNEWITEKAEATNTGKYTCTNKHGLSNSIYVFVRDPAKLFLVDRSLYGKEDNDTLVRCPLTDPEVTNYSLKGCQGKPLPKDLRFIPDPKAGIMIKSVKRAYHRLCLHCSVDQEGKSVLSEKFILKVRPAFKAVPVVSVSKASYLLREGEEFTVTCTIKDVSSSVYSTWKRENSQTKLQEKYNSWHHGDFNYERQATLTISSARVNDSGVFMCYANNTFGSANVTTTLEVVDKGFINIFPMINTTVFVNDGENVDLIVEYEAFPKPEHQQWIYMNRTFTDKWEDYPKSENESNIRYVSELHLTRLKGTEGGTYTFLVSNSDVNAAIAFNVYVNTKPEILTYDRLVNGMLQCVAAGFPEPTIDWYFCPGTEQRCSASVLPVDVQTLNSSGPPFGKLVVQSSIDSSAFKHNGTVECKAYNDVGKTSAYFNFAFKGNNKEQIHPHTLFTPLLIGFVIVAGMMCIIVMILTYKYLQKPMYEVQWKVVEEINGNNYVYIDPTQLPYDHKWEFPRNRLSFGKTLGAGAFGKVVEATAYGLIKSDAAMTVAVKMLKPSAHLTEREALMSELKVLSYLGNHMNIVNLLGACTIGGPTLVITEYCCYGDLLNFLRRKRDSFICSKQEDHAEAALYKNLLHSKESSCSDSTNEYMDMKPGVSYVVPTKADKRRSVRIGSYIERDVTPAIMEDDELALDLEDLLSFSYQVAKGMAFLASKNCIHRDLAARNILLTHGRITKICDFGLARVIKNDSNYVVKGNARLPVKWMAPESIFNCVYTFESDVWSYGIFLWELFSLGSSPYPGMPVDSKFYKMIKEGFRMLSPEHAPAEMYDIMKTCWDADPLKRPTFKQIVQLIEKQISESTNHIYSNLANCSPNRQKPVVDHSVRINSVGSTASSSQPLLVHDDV
# protocol_notes: Kit D816V assay at Km (Caliper electrophoretic mobility shift)
# cond: 15 uM ATP, 25 C, 90 minutes
pIC50: −log10 of the molar value.

1. c1ccc(Cc2cnc(N3CCN(c4ncnc(Nc5cnn(C[C@H]6CCCN6)c5)n4)CC3)nc2)cc1; > 9.00
2. OC1(c2ccc(Nc3ncnc(N4CCN(c5ncc(Cc6ccccc6)cn5)CC4)n3)cc2)CCCCC1; 8.00 to 9.00
3. c1ccc(Cc2cnc(N3CCN(c4ncnc(Nc5ccc(N6CCOCC6)cc5)n4)CC3)nc2)cc1; 8.00 to 9.00
4. O[C@@H]1CCCN(c2ccc(Nc3ncnc(N4CCN(c5ncc(Cc6ccccc6)cn5)CC4)n3)cc2)C1; 8.00 to 9.00
5. Fc1cccc(Sc2cnc(N3CCN(c4ncnc(Nc5cnn(C[C@@H]6CNCCO6)c5)n4)CC3)nc2)c1; 8.00 to 9.00

Task: // pIC50 lookup, key: c1ccc(Cc2cnc(N3CCN(c4ncnc(Nc5ccc(OC[C@H]6CCCN6)cc5)n4)CC3)nc2)cc1
Output: > 9.00

Task: // pIC50 lookup, key: CN(C)CCn1cc(Nc2ncnc(N3CCN(c4ncc(Cc5ccccc5)cn4)CC3)n2)cn1
Output: > 9.00

Values were extracted from patent US9334263B2.
